Just for reference, ChEMBL document CHEMBL1132432 is where these values come from.

Below: a set of entries, each annotated with reported ED50.
# TARGET: Human immunodeficiency virus type 1 reverse transcriptase (Human immunodeficiency virus 1) (UniProt Q72547)
# MEASUREMENT CONTEXT: MT4
# Description: Inhibitory activity against HIV-1 Ile 100 mutant in MT-4 cells.
Unit µM implied. Number only.

Below: 4 compounds and their reported ED50.
## Input State the recorded ED50 for this entry: CCOc1ccc(F)c(C2CC2NC(=O)Nc2ccc(Cl)cn2)c1F (stereo unspecified)
## Output 0.816

## Input State the recorded ED50 for this entry: CC(=O)c1ccc(F)c(C2CC2NC(=O)Nc2ccc(Br)cn2)c1O (stereo unspecified)
## Output 0.05

## Input State the recorded ED50 for this entry: CCC(=O)c1ccc(F)c(C2CC2NC(=O)Nc2ccc(Cl)cn2)c1O (stereo in doubt; 13)
## Output 0.22

## Input State the recorded ED50 for this entry: CCOc1ccc(Cl)c(C2CC2NC(=O)Nc2ccc(Cl)cn2)c1F (stereo unspecified)
## Output 0.139

New cases:
## Input State the recorded ED50 for this entry: CCOc1ccc(Cl)c(C2CC2NC(=O)Nc2ccc(C#N)cn2)c1F (stereo unspecified)
## Output 0.053

----------
# TARGET: UniProtKB Q72547
# MEASUREMENT CONTEXT: MT4
# Description: Inhibition of wild type HIV-1 in MT-4 cell culture (human T cell line)
Returns: string. Value is TRUE if measured ED50 is below 0.03 µM, and FALSE if it is greater than or equal to it.

Sample answers from the record:
## Input Hello, I'm reviewing records and need to know if ED50 of CCC(=O)c1ccc(F)c(C2CC2NC(=O)Nc2ccc(Cl)cn2)c1O (stereo in doubt; 20) is below 0.03 µM. Could you check?
## Output TRUE

## Input Hello, I'm reviewing records and need to know if ED50 of CCC(=O)c1ccc(F)c(C2CC2NC(=O)Nc2ccc(Cl)cn2)c1O (stereo in doubt; 19) is below 0.03 µM. Could you check?
## Output TRUE

## Input Hello, I'm reviewing records and need to know if ED50 of COc1ccc(OC)c(CCNC(=O)Nc2ccc(Cl)cn2)c1F is below 0.03 µM. Could you check?
## Output TRUE

New cases:
## Input Hello, I'm reviewing records and need to know if ED50 of CCOc1ccc(Cl)c(C2CC2NC(=O)Nc2ccc(C#N)cn2)c1F (stereo not given) is below 0.03 µM. Could you check?
## Output TRUE

## Input Hello, I'm reviewing records and need to know if ED50 of CCC(=O)c1ccc(F)c(C2CC2NC(=O)Nc2ccc(Cl)cn2)c1O (stereo in doubt; 13) is below 0.03 µM. Could you check?
## Output TRUE

## Input Hello, I'm reviewing records and need to know if ED50 of CCOc1ccc(F)c(C2CC2NC(=O)Nc2cc(Cl)cnn2)c1Cl (stereo not given) is below 0.03 µM. Could you check?
## Output FALSE

## Input Hello, I'm reviewing records and need to know if ED50 of CCOc1ccc(Cl)c(C2CC2NC(=O)Nc2cc(Cl)cnn2)c1F (stereo not given) is below 0.03 µM. Could you check?
## Output TRUE

## Input Hello, I'm reviewing records and need to know if ED50 of CN(C)c1ccc(F)c(CCNC(=O)Nc2ccc(Br)cn2)c1F is below 0.03 µM. Could you check?
## Output FALSE

## Input Hello, I'm reviewing records and need to know if ED50 of CCOc1ccc(F)c(C2CC2NC(=O)Nc2ccc(Cl)cn2)c1F (stereo not given) is below 0.03 µM. Could you check?
## Output FALSE

## Input Hello, I'm reviewing records and need to know if ED50 of COc1ccc(C(C)=O)c(F)c1CCNC(=O)Nc1ccc(Cl)cn1 is below 0.03 µM. Could you check?
## Output FALSE
